test system: HUVEC; test: Antiproliferative activity against FGF-induced HUVEC; type: functional, cell-based; settings: Homo sapiens
pIC50: −log10 of the molar value.

| CPD SMILES | pIC50 |
| --- | --- |
| COc1cc2nccc(CN3CCc4c(cccc4C(=O)Nc4ccc(C(C)(C)C)cc4)C3)c2cc1OC | < 5.94 |
| COc1cc2nccc(Oc3ccc4c(C(=O)Nc5ccc(Cl)cc5)cccc4c3)c2cc1OC | < 5.94 |
| COc1cc2nccc(CN3CCc4c(C(=O)Nc5ccc(Cl)c(C(F)(F)F)c5)cccc4C3=O)c2cc1OC | < 5.94 |

---

assay: Aqueous solubility in simulated intestinal fluid at pH 6.8; assay type: physicochemical
READOUT LABEL: solubility (µg/mL)

| CPD SMILES | VALUE PREFIX | RESULT NUMBER |
| --- | --- | --- |
| COCCNC(=O)c1cccc2c1CCN(Cc1ccnc3cc(OC)c(OC)cc13)C2 | > | 200 |
| COc1cc2nccc(CN3CCc4c(cccc4C(=O)Nc4ccc(Cl)cc4)C3)c2cc1OC | = | 12 |
| COc1cc2nccc(CN3CCc4c(cccc4C(=O)Nc4ccc(C(C)(C)C)cc4)C3)c2cc1OC | = | 34 |
| COc1cc2nccc(CN3CCc4c(C(=O)Nc5ccc(Cl)c(C(F)(F)F)c5)cccc4C3=O)c2cc1OC | = | 24 |
